- testDescription: Biodistribution studies in HEK-uPAR xenograft-bearing nude mice
- conditionSummary: female, CD1/nude, mouse, bone, 5 MBq (0.5 nmol), total radioactivity, 4 h p.i.; 5 MBq, 0.5 nmol; decay-corrected; average ± SD, n=3 animals
testReadout: tissue uptake at 4 h (%ID/g)
Answer in %ID/g, number only, no unit symbol.

Some solved entries appear below for comparison.
• CC(C)C[C@H](NC(=O)[C@H](Cc1ccc(O)cc1)NC(=O)[C@@H](CCCNC(=N)N)NC(=O)[C@@H](CO)NC(=O)[C@H](Cc1ccccc1)NC(=O)[C@H](CC1CCCCC1)NC(=O)[C@H](CC(=O)O)NC(=O)CN1CCN(CC(=O)O)CCN(CC(=O)O)CCN(CC(=O)O)CC1)C(=O)N[C@@H](Cc1c[nH]c2ccccc12)C(=O)N[C@@H](CO)C(N)=O [[^177Lu]Lu-DOTA-AE105, metal not drawn, reference compound] = 0.38
• CC(C)C[C@H](NC(=O)[C@H](Cc1ccc(O)cc1)NC(=O)[C@@H](CCCNC(=N)N)NC(=O)[C@@H](CO)NC(=O)[C@H](Cc1ccccc1)NC(=O)[C@H](CC1CCCCC1)NC(=O)[C@H](CC(=O)O)NC(=O)CCOCCOCCOCCOCCNC(=O)[C@H](CCCCNC(=O)CCCc1ccc(I)cc1)NC(=O)CN1CCN(CC(=O)O)CCN(CC(=O)O)CCN(CC(=O)O)CC1)C(=O)N[C@@H](Cc1c[nH]c2ccccc12)C(=O)N[C@@H](CO)C(N)=O [[^177Lu]Lu-uPAR-05, metal not drawn] = 1.1
• CC(C)C[C@H](NC(=O)[C@H](Cc1ccc(O)cc1)NC(=O)[C@@H](CCCNC(=N)N)NC(=O)[C@@H](CO)NC(=O)[C@H](Cc1ccccc1)NC(=O)[C@H](CC1CCCCC1)NC(=O)[C@H](CC(=O)O)NC(=O)[C@H](CCCCNC(=O)CCCc1ccc(I)cc1)NC(=O)[C@@H](N)CCCCNC(=O)CN1CCN(CC(=O)O)CCN(CC(=O)O)CCN(CC(=O)O)CC1)C(=O)N[C@@H](Cc1c[nH]c2ccccc12)C(=O)N[C@@H](CO)C(N)=O [[^177Lu]Lu-uPAR-04, metal not drawn] = 1.2

Query compound follows.
Query (compound): CC(C)C[C@H](NC(=O)[C@H](Cc1ccc(O)cc1)NC(=O)[C@@H](CCCNC(=N)N)NC(=O)[C@@H](CO)NC(=O)[C@H](Cc1ccccc1)NC(=O)[C@H](CC1CCCCC1)NC(=O)[C@H](CC(=O)O)NC(=O)[C@H](CCCCNC(=O)CCCc1ccc(I)cc1)NC(=O)CN1CCN(CC(=O)O)CCN(CC(=O)O)CCN(CC(=O)O)CC1)C(=O)N[C@@H](Cc1c[nH]c2ccccc12)C(=O)N[C@@H](CO)C(N)=O [[^177Lu]Lu-uPAR-01, metal not drawn] ; field requested: tissue uptake at 4 h
1.9

Numbers sourced from paper PMC12135066.
